What pIC50 was measured for each of the following?
TESTED_SYSTEM: Recombinant human renin (Homo sapiens)
Construct: isolate the active form (residues 67-406); made in house; host or cells: FreeStyle 293-F cells (transient expression of pcDNA3.1(+)/hREN)
Sequence (P00797 67-406): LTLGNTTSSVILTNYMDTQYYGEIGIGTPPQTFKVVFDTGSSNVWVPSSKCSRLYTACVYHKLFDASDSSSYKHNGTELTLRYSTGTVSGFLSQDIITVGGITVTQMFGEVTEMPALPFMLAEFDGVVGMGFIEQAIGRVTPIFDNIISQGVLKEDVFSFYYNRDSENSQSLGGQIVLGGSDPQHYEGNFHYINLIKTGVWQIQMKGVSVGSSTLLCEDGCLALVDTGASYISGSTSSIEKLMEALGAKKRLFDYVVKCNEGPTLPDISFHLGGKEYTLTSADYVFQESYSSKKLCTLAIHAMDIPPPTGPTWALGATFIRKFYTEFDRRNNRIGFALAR
MEASUREMENT_PROTOCOL: In vitro enzymatic activity assay of renin inhibitors (fluorogenic peptide substrate)
Format: biochemical
EXPERIMENTAL_CONDITIONS: read-out: IC50 of Exemplified Compounds Against Renin
pIC50: −log10 of the molar value.

Previously resolved entries follow.
{"MOLECULE": "CNC(Cc1ccccc1)C(=O)N1CCCC(c2nc3ccccc3[nH]2)C1 (stereo not shown)", "TEST_READOUT": "pIC50", "ASSAY_RESULT": "< 6.00"}
{"MOLECULE": "COCCCn1c([C@@H]2CCCN(C(=O)C[C@H](N)Cc3ccc(-c4ccc(NC(=O)OC)cc4)cc3)C2)nc2ccccc21", "TEST_READOUT": "pIC50", "ASSAY_RESULT": "> 7.00"}
{"MOLECULE": "COCCCn1c([C@@H]2CCCN(C(=O)C[C@H](N)Cc3ccc(-c4ccc[nH]4)cc3)C2)nc2ccccc21", "TEST_READOUT": "pIC50", "ASSAY_RESULT": "> 7.00"}
{"MOLECULE": "COCCCn1c([C@@H]2CCCN(C(=O)[C@@H]3CN(C(=O)c4cccc(Oc5ccccc5)c4)C[C@H]3N)C2)nc2ccccc21", "TEST_READOUT": "pIC50", "ASSAY_RESULT": "6.00 to 7.00"}
{"MOLECULE": "COCCCn1c([C@@H]2CCCN(C(=O)[C@@H]3CN(S(=O)(=O)c4ccc(OC)cc4[N+](=O)[O-])C[C@H]3N)C2)nc2ccccc21", "TEST_READOUT": "pIC50", "ASSAY_RESULT": "6.00 to 7.00"}
{"MOLECULE": "COCCCn1c([C@@H]2CCCN(C(=O)[C@@H]3CN(S(=O)(=O)c4ccc(Cl)cc4Cl)C[C@H]3N)C2)nc2ccccc21", "TEST_READOUT": "pIC50", "ASSAY_RESULT": "6.00 to 7.00"}

For each of the items listed, what is its pIC50?
1. NC1(C(=O)N2CCCC(c3nc4ccccc4[nH]3)C2)CC1 (stereo not shown)
2. CNC(=O)CCn1c([C@@H]2CCCN(C(=O)C[C@H](N)Cc3ccc(-c4ccc5c(c4)CCO5)cc3)C2)nc2c(C)cccc21
3. COCCCn1c([C@@H]2CCCN(C(=O)[C@@H]3CN(S(=O)(=O)c4ccccc4Cl)C[C@H]3N)C2)nc2ccccc21
4. COCCCn1c([C@@H]2CCCN(C(=O)C[C@H](N)CNC(=O)Nc3ccc(Cl)c(Cl)c3)C2)nc2ccccc21
5. COCCCn1c([C@@H]2CCCN(C(=O)C[C@H](N)Cc3ccc(-c4ccncc4Cl)cc3)C2)nc2ccccc21
6. COCCCn1c([C@@H]2CCCN(C(=O)C[C@H](N)CNC(=O)c3ccc(-c4ccccc4)o3)C2)nc2ccccc21
7. COCCCn1c([C@@H]2CCCN(C(=O)C[C@H](N)Cc3ccc(-c4ccc5occc5c4)cc3)C2)nc2c(C)cccc21

< 6.00
6.00 to 7.00
6.00 to 7.00
> 7.00
> 7.00
> 7.00
> 7.00

----------
What pIC50 was measured for each of the following?
TESTED_SYSTEM: Recombinant human renin (Homo sapiens)
Construct: isolate the active form (residues 67-406); made in house; host or cells: FreeStyle 293-F cells (transient expression of pcDNA3.1(+)/hREN)
MEASUREMENT_PROTOCOL: In vitro enzymatic activity assay of renin inhibitors (fluorogenic peptide substrate)
Format: biochemical
EXPERIMENTAL_CONDITIONS: read-out: IC50 of Exemplified Compounds Against Renin
pIC50: −log10 of the molar value.

{"COMPOUND": "CCOC(=O)c1ccc(-c2ccc(C(=O)NC[C@@H](N)CC(=O)N3CCC[C@@H](c4nc5ccccc5n4CCCOC)C3)o2)cc1 [Compound 294]", "pIC50": "6.00 to 7.00"}
{"COMPOUND": "CCOCCNC(=O)c1ccc(-c2ccc(C[C@@H](N)CC(=O)N3CCC[C@@H](c4nc5ccccc5n4CCCOC)C3)cc2)cc1 [Compound 178]", "pIC50": "> 7.00"}
{"COMPOUND": "COCCCn1c([C@@H]2CCCN(C(=O)C[C@H](N)CNC(=O)Nc3cc(C)ccc3OC)C2)nc2ccccc21 [Compound 287]", "pIC50": "6.00 to 7.00"}
{"COMPOUND": "COCCCn1c([C@@H]2CCCN(C(=O)[C@@H]3CN(S(=O)(=O)c4ccc5c(c4)CCO5)C[C@H]3N)C2)nc2ccccc21 [Compound 355]", "pIC50": "6.00 to 7.00"}

For each of the items listed, what is its pIC50?
1. N[C@H](Cc1ccccc1)C(=O)N1CCCC(c2nc3ccccc3[nH]2)C1 (some centres unmarked) [Compound 58]
2. CCOC(=O)CCNC(=O)N1CCCC(c2nc3ccccc3[nH]2)C1 (centres unmarked) [Compound 14]
3. COCCCn1c([C@@H]2CCCN(C(=O)C[C@H](N)CNC(=O)Nc3ccccc3OC(F)F)C2)nc2ccccc21 [Compound 274]

1: < 6.00; 2: < 6.00; 3: 6.00 to 7.00

In plain terms, COCCCn1c([C@@H]2CCCN(C(=O)[C@@H]3CN(S(=O)(=O)c4ccccc4C#N)C[C@H]3N)C2)nc2ccccc21 [Compound 427] has a documented pIC50 of < 6.00

----------
TESTED_SYSTEM: Recombinant human renin (Homo sapiens, UniProt P00797)
Construct: isolate the active form (residues 67-406); made in house; host or cells: FreeStyle 293-F cells (transient expression of pcDNA3.1(+)/hREN)
Sequence (P00797 67-406): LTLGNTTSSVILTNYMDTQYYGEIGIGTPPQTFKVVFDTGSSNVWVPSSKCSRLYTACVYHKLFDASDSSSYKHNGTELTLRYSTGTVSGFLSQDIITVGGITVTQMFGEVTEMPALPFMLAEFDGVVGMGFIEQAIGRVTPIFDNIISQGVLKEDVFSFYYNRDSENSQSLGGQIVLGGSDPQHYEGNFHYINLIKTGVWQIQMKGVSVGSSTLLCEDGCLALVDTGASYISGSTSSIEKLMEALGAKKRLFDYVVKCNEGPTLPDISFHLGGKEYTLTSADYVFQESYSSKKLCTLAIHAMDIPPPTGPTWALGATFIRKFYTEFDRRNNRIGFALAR
MEASUREMENT_PROTOCOL: In vitro enzymatic activity assay of renin inhibitors (fluorogenic peptide substrate)
Assay type: biochemical
EXPERIMENTAL_CONDITIONS: read-out: IC50 of Exemplified Compounds Against Renin
TEST_READOUT: IC50

Previously resolved entries follow.
{"COMPOUND": "Cc1ccc(NC(=O)N2CCCC(c3nc4ccccc4[nH]3)C2)cc1Cl (stereo not shown)", "TEST_READOUT": "IC50", "ASSAY_RESULT": "> 1000 nM"}
{"COMPOUND": "N[C@@H](Cc1ccccn1)C(=O)N1CCCC(c2nc3ccccc3[nH]2)C1 (stereo partly shown)", "TEST_READOUT": "IC50", "ASSAY_RESULT": "> 1000 nM"}
{"COMPOUND": "COCCCn1c([C@@H]2CCCN(C(=O)[C@@H]3CN(C(=O)c4c(Cl)cccc4Cl)C[C@H]3N)C2)nc2ccccc21", "TEST_READOUT": "IC50", "ASSAY_RESULT": "> 1000 nM"}

In plain terms, COCCCn1c([C@@H]2CCCN(C(=O)C[C@H](N)Cc3cccc(-c4ccccc4)c3)C2)nc2ccccc21 has a documented IC50 of < 100 nM

----------
TESTED_SYSTEM: Recombinant human renin (Homo sapiens, UniProt P00797)
Construct: isolate the active form (residues 67-406); made in house; host or cells: FreeStyle 293-F cells (transient expression of pcDNA3.1(+)/hREN)
MEASUREMENT_PROTOCOL: In vitro enzymatic activity assay of renin inhibitors (fluorogenic peptide substrate)
Type: biochemical
EXPERIMENTAL_CONDITIONS: read-out: IC50 of Exemplified Compounds Against Renin
pIC50: −log10 of the molar value.
What pIC50 was measured for each of the following?

{"COMPOUND": "COCCCn1c(C2CCCN(C(=O)C[C@H](N)c3ccccc3)C2)nc2ccccc21 (stereo partly shown) [Compound 66]", "TESTED_SYSTEM": "Recombinant human renin (Homo sapiens, UniProt P00797)", "pIC50": "< 6.00"}

For each of the items listed, what is its pIC50?
1. COCCCn1c([C@@H]2CCCN(C(=O)C[C@H](N)Cc3ccc(-c4ccc(N(C)C)nc4)cc3)C2)nc2ccccc21 [Compound 147]
2. COCCCn1c([C@@H]2CCCN(C(=O)C[C@H](N)Cc3ccc(-c4ccc(NC(C)=O)cc4)cc3)C2)nc2ccccc21 [Compound 129]
3. COCCCn1c([C@@H]2CCCN(C(=O)C[C@H](N)Cc3ccc(F)c(F)c3)C2)nc2ccccc21 [Compound 76]

["> 7.00", "> 7.00", "6.00 to 7.00"]

For each of the items listed, what is its pIC50?
1. COCCCn1c([C@@H]2CCCN(C(=O)C[C@H](N)Cc3ccc(-n4ccc(=O)n(C)c4=O)cc3)C2)nc2ccccc21 [Compound 210]
2. N[C@H]1CCC[C@@H]1C(=O)N1CCCC(c2nc3ccccc3[nH]2)C1 (stereo partly shown) [Compound 57]
3. COCCCn1c([C@@H]2CCCN(C(=O)[C@@H]3CN(C(=O)Nc4ccccc4Cl)C[C@H]3N)C2)nc2ccccc21 [Compound 389]
4. COCCCn1c([C@@H]2CCCN(C(=O)[C@@H]3CN(C(=O)Nc4cccc(OC)c4)C[C@H]3N)C2)nc2ccccc21 [Compound 367]

["6.00 to 7.00", "< 6.00", "< 6.00", "6.00 to 7.00"]

For each of the items listed, what is its pIC50?
1. COCCCn1c([C@@H]2CCCN(C(=O)C[C@H](N)CNS(=O)(=O)c3ccccc3)C2)nc2ccccc21 [Compound 316]
2. NC(=O)CCn1c([C@@H]2CCCN(C(=O)C[C@H](N)Cc3ccc(-c4ccc5c(c4)OCCO5)cc3)C2)nc2ccccc21 [Compound 484]
3. COCCCn1c([C@@H]2CCCN(C(=O)C[C@H](N)Cc3ccncc3)C2)nc2ccccc21 [Compound 78]

1. 6.00 to 7.00
2. < 6.00
3. < 6.00

For each of the items listed, what is its pIC50?
1. COCCCn1c([C@@H]2CCCN(C(=O)CC(N)C3CCNCC3)C2)nc2ccccc21 (stereo partly shown) [Compound 94]
2. COCCCn1c([C@@H]2CCCN(C(=O)C[C@H](N)CNC(=O)Nc3ccc4c(c3)CCC4)C2)nc2ccccc21 [Compound 266]
3. N[C@@H](CC(=O)N1CCCC(c2nc3ccccc3[nH]2)C1)c1cccc(Br)c1 (stereo partly shown) [Compound 41]
4. COCCCn1c([C@@H]2CCCN(C(=O)C[C@H](N)Cc3ccc(-c4ccc(C(=O)NCCOC)c(F)c4)cc3)C2)nc2ccccc21 [Compound 191]
5. COCCCn1c([C@@H]2CCCN(C(=O)[C@@H]3CN(C(=O)c4ccc(C(=O)OC)cc4)C[C@H]3N)C2)nc2ccccc21 [Compound 422]
6. S=C(Nc1cccc2nsnc12)N1CCCC(c2nc3ccccc3[nH]2)C1 (stereo not shown) [Compound 18]

< 6.00
6.00 to 7.00
< 6.00
> 7.00
< 6.00
< 6.00

For each of the items listed, what is its pIC50?
1. COCCCn1c([C@@H]2CCCN(C(=O)C[C@H](N)CNC(=O)c3ccc(-c4ccccc4)cc3)C2)nc2ccccc21 [Compound 264]
2. COCCCn1c([C@@H]2CCCN(C(=O)C[C@H](N)Cc3ccc(-c4ccccc4)cc3)C2)nc2ccncc21 [Compound 103]

1: 6.00 to 7.00; 2: < 6.00
